Where do these numbers come from? They come from patent US20090311265A1.

TESTED ON: full-length HA from isolate A/Vietnam/1194/2004 (H5N1TV) on PER.C6 cells (influenza A virus A/Vietnam/1194/2004 …, UniProt Q80A26 6-554)
ASSAY METHOD TEXT: flow cytometry, transfected PER.C6 cells
Please note: MET applies when flow cytometry signal at 1 µg/ml is 300 or greater, and NOT MET applies otherwise.

These solved cases illustrate the format of a correct answer.
>>> group_label("CR6307 (antibody, V domains shown) VH: QVQLVQSGGGLVKPGGSLRLSCAASGFTFSSYSMNWVRQAPGKGLEWVSSISSSSSYIYYVDSVKGRFTISRDNAKNSLYLQMNSLRAEDTAVYYCARGGGSYGAYEGFDYWGQGTLVTVSS VL: EIVLTQSPGTLSLSPGERATLSCRASQRVSSYLAWYQQKPGQAPRLLIYGASTRAAGIPDRFSGSGSGTDFTLTISRLEPEDSAVYYCQQYGRTPLTFGGGTKVEIKR")
"NOT MET"
>>> group_label("CR6262 (antibody, V domains shown) VH: QVQLQQSGAEVKKPGSSVKVSCKVSGVIFSGSAISWVRQAPGQGLEWMGGISPLFGTTNYAQKFQGRVTITADQSTNTTYMEVNSLRYEDTAVYFCARGPKYYSEYMDVWGKGTTVTVSS VL: DIQMTQSPSSLSASVGDRVTITCRASQGISSYLAWYQQKPGKVPTLLIYDASTLRSGVPSRFSGSGSATDFTLTISSLQPEDVATYYCQRYNSAPPITFGQGTRLEIKR")
"NOT MET"
>>> group_label("CR6260 (antibody, V domains shown) VH: EVQLVESGAEVKKPGSSVKVSCKASGGPFRSYAISWVRQAPGQGPEWMGGIIPIFGTTKYAPKFQGRVTITADDFAGTVYMELSSLRSEDTAMYYCAKHMGYQVRETMDVWGKGTTVTVSS VL: SYVLTQPPSVSGTPGQRVTISCSGSRSNVGDNSVYWYQHVPEMAPKLLVYKNTQRPSGVPARFSGSKSGTSASLAIIGLQSGDEADYYCVAWDDSVDGYVFGSGTKVTVLG")
"NOT MET"
>>> group_label("CR6314 (antibody, V domains shown) VH: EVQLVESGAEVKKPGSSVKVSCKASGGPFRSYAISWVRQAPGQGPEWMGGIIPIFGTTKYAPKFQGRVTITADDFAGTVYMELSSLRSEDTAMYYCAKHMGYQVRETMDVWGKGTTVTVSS VL: SYVLTQPPSASGTPGQRVTISCSGSSSNIGSNYVYWYQQLPGTAPKLLIYRDGQRPSGVPDRFSGSKSGTSASLAISGLRSDDEADYYCATWDDNLSGPVFGGGTKLTVLG")
"NOT MET"

query: Answer whether flow cytometry signal at 1 µg/ml of CR6344 (antibody, V domains shown) VH: QVQLVQSGAEVKKPGSSVRVSCKASGSIFRNYAMSWVRQAPGQGLEWMGGIIAIFGTPKYAQKFQGRVTITADESTSTVYMELSGLRSEDTAMYYCARIPHYNFGSGSYFDYWGQGTLVTVSS VL: TVLTQPPSVSGAPGQRVTISCTGSSSNIGAGYDVHWYQQLPGTAPKLLIYGNSNRPSGVPDRFSGSKSGTSATLGITGLQTGDEADYYCGTWDSSLSAYVFGTGTKVTVLG is greater than or equal to 300.
result: MET

query: Answer whether flow cytometry signal at 1 µg/ml of CR6255 (antibody, V domains shown) VH: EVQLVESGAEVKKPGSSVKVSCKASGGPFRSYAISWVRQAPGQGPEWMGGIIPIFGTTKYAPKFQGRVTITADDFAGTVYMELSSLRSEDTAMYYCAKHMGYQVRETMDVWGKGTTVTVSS VL: SYVLTQPPSASGTPGQRVTISCSGSTFNIGSNAVDWYRQLPGTAPKLLIYSNNQRPSGVPDRFSGSRSGTSASLAISGLQSEDEADYYCAAWDDILNVPVFGGGTKLTVLG is greater than or equal to 300.
result: NOT MET
